These measurements were taken from paper PMC6792352.

method.notes: in vitro
stated.conditions: rat, gh3-tre-luc cells, AC50 (uM) modified / 1000, Tox21_110001=Tox21_201292; viability, 1 nM T3 present, 24 h
assay.endpoint: CC50 at 24 h

**Query** Which CC50 at 24 h is reported for this molecule? Cc1cc(-c2ccc(N)c(C)c2)ccc1N
**Result** > 90 µM

----------
Test system: GH3-TRE-Luc cell line
stated.conditions: read-out: AC50 (uM) modified / 1000; Tox21_110001=Tox21_301456; viability, 1 nM T3 present, 24 h
assay.endpoint: CC50 (µM)
Express it in µM; write the number only.

**Query** Which CC50 is reported for this compound? CC[C@H](c1ccc(O)cc1)[C@@H](CC)c1ccc(O)cc1
**Result** 47
